Tested on: 786-0
Assay: Cytotoxicity against Homo sapiens (human) 786-0 cells assessed as growth inhibition at 10 uM after 48 hr by coulter counter analysis
Type: functional
Settings: 786-0, 48 h, read-out: GI
Give inhibition of growth at 10 µM for every item shown.
Numbers only, in %.

Qu. GET /values?readout=inhibition of growth at 10 µM&item= `O=C(CSc1nc2ccccc2c(=O)n1CCc1ccccc1)c1ccc(F)cc1`
Ans. 32

Qu. `O=c1c2ccccc2nc(SCCN2CCCCC2)n1CCc1ccccc1` ?
Ans. 14

---
Qu. Reported inhibition of growth at 10 µM for `CCn1c(S)nnc1CSc1nc2ccccc2c(=O)n1CCc1ccccc1` : what is it?
Ans. 19

====

Tested on: T47D
Assay: Cytotoxicity against Homo sapiens (human) T47D cells assessed as growth inhibition at 10 uM after 48 hr by coulter counter analysis
Assay type: functional
Conditions: read-out: GI
readout: inhibition of growth at 10 µM

Qu. # input compound: `O=c1c2ccccc2[nH]c(=S)n1CCc1ccccc1` ; wanted: its inhibition of growth at 10 µM
Ans. < 10%

Qu. Next record, please: `COc1ccc(-n2c(S)nnc2CSc2nc3ccccc3c(=O)n2CCc2ccccc2)cc1`
Ans. < 10%

---
Qu. # lookup: inhibition of growth at 10 µM of `O=C(CSc1nc2ccccc2c(=O)n1CCc1ccccc1)c1ccccc1`
Ans. < 10%

====

System: 786-0
Assay: Cytotoxicity against Homo sapiens (human) 786-0 cells assessed as growth inhibition at 10 uM after 48 hr by coulter counter analysis
Assay type: functional
Conditions: 786-0, 48 h, read-out: GI
For each record, write down the corresponding inhibition of growth at 10 µM.

Example results:
Qu. Please give the measured inhibition of growth at 10 µM for this compound: `O=c1c2ccccc2nc(SCc2nnc(S)n2-c2ccccc2)n1CCc1ccccc1`
Ans. < 10%

Qu. Cool, now `O=c1c2ccccc2[nH]c(=S)n1CCc1ccccc1`
Ans. < 10%

Continue with the compound presented below.
Qu. Please report the recorded inhibition of growth at 10 µM for `COc1ccc(-n2c(S)nnc2CSc2nc3ccccc3c(=O)n2CCc2ccccc2)cc1` .
Ans. < 10%
